- subject-of-test: C5a receptor (Homo sapiens)
- Sequence (P21730 whole entry, the tested form may be a part): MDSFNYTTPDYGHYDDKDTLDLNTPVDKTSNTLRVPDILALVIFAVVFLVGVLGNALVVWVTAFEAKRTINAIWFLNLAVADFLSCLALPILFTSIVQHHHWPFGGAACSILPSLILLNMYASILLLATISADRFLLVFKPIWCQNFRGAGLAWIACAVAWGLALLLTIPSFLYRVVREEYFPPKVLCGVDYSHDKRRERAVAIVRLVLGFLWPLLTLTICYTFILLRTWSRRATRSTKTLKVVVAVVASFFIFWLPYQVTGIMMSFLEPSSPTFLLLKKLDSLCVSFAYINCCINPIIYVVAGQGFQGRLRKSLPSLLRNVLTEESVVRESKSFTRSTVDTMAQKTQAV
- run-description: Anaphylatoxin (C5a) receptor binding Ki determination, 125I-C5a on PMNL membrane fragments
- condition: read-out: Ki (In vitro C5a Receptor Binding Potency)
*1 amine or outer side, *2 acyl side, *3 side chain or, on linkers, in order; H or OH if unused. Where a SMILES comes first, the peptide text is derived from it. [ ]: non-standard residue; d: D form. The star is where a group is joined. X5 = O=C([C@H](CC1CCCCC1)N(Cc1ccccc1)[*:1])[*:2]; d(hhPhe) = N[C@H](CCCc1ccccc1)C(=O)O; X3 = Nc1ccccc1C=CC(=O)*; X12 = CC(c1ccccc1)*
Please respond with reported Ki for every item in the list.
Give bare numbers, in nM.

{"molecule": "CC(C)C[C@H](NC(=O)[C@@H](C)NC(=O)[C@H](CC1CCCCC1)NC(=O)CCCCCN)C(=O)NC(CCCc1ccccc1)C(=O)N[C@@H](CCCNC(=N)N)C(=O)O (single isomer, unassigned) [Example 127]", "meas-value": 23300}
{"molecule": "CC(C)C[C@H](NC(=O)CNC(=O)[C@@H](N)CSC(C)c1ccccc1)C(=O)N[C@H](CCCc1ccccc1)C(=O)N[C@@H](CCCNC(=N)N)C(=O)O (some centres unmarked) [Example 91] (H-C(X12)GL[d(hhPhe)]R-OH)", "meas-value": 390}
{"molecule": "CC(C)C[C@H](NC(=O)CNC(=O)[C@H](CC1CCCCC1)NCc1ccccc1)C(=O)N[C@H](CCCc1ccccc1)C(=O)N[C@@H](CCCNC(=N)N)C(=O)O [Example 63] (H-[X5]GL[d(hhPhe)]R-OH)", "meas-value": 400}
{"molecule": "CSCC[C@H](NC(=O)[C@H](CC(=O)O)NC(=O)[C@@H](N)CCCCN)C(=O)N[C@@H](CCC(N)=O)C(=O)N[C@@H](CC(C)C)C(=O)NC(CCCc1ccccc1)C(=O)N[C@@H](CCCNC(=N)N)C(=O)O (single isomer, unassigned) [Example 40]", "meas-value": 1100}

Problem: For the molecule CC(C)C[C@H](NC(=O)CNC(=O)C=Cc1ccccc1N)C(=O)N[C@H](CCCc1ccccc1)C(=O)N[C@@H](CCCNC(=N)N)C(=O)O [Example 106] (X3-GL[d(hhPhe)]R-OH) , what Ki is on record?
Result: 410
